- System: MDA-MB-468 multi-cell spheroids, viability
- test.description: Anticancer human tumor MDA-MB-468 cell line growth inhibition [IpAb];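 also: spheroids exposed to agents for seven days; 100% = DMSO vehicle control viability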
- particulars: second compound 1 µM; first compound 0.3 µM; stronger effect = lower value
recorded.endpoint: viability, T/C (%)

[[record]]
compound = "Cn1cnc2c(F)c(Nc3ccc(Br)cc3Cl)c(C(=O)NOCCO)cc21 + CCN1CCN(Cc2ccc(Nc3ncc(F)c(-c4cc(F)c5nc(C)n(C(C)C)c5c4)n3)nc2)CC1"
units_text = "%"
test_value = 43.5

[[record]]
compound = "Cn1cnc2c(F)c(Nc3ccc(Br)cc3Cl)c(C(=O)NOCCO)cc21 + CC(C)NCC(C(=O)N1CCN(c2ncnc3c2C(C)CC3O)CC1)c1ccc(Cl)cc1"
units_text = "%"
test_value = 24.2

[[record]]
compound = "CC(=O)c1c(C)c2cnc(Nc3ccc(N4CCNCC4)cn3)nc2n(C2CCCC2)c1=O + CC(C)NCC(C(=O)N1CCN(c2ncnc3c2C(C)CC3O)CC1)c1ccc(Cl)cc1"
units_text = "%"
test_value = 48.3


----------
- Tested on: MDA-MB-468 multi-cell spheroids, viability
- test.description: Anticancer human tumor MDA-MB-468 cell line growth inhibition [IpAb];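 also: spheroids exposed to agents for seven days; 100% = DMSO vehicle control viability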
- particulars: second compound 0.316 µM; first compound 0.00949 µM; stronger effect = lower value
recorded.endpoint: viability, T/C (%)

[[record]]
molecule = "Cn1cnc2c(F)c(Nc3ccc(Br)cc3Cl)c(C(=O)NOCCO)cc21 + CCN1CCN(Cc2ccc(Nc3ncc(F)c(-c4cc(F)c5nc(C)n(C(C)C)c5c4)n3)nc2)CC1"
test_value = 108

[[record]]
molecule = "Cn1cnc2c(F)c(Nc3ccc(Br)cc3Cl)c(C(=O)NOCCO)cc21 + CC(C)NCC(C(=O)N1CCN(c2ncnc3c2C(C)CC3O)CC1)c1ccc(Cl)cc1"
test_value = 66.3

[[record]]
molecule = "CC(=O)c1c(C)c2cnc(Nc3ccc(N4CCNCC4)cn3)nc2n(C2CCCC2)c1=O + CCN1CCN(Cc2ccc(Nc3ncc(F)c(-c4cc(F)c5nc(C)n(C(C)C)c5c4)n3)nc2)CC1"
test_value = 93.7

[[record]]
molecule = "CC(C)(C)c1cnc(CSc2cnc(NC(=O)C3CCNCC3)s2)o1 + CCN1CCN(Cc2ccc(Nc3ncc(F)c(-c4cc(F)c5nc(C)n(C(C)C)c5c4)n3)nc2)CC1"
test_value = 90.8

[[record]]
molecule = "CC(=O)c1c(C)c2cnc(Nc3ccc(N4CCNCC4)cn3)nc2n(C2CCCC2)c1=O + CC(C)NCC(C(=O)N1CCN(c2ncnc3c2C(C)CC3O)CC1)c1ccc(Cl)cc1"
test_value = 57.4

[[record]]
molecule = "CC(C)(C)c1cnc(CSc2cnc(NC(=O)C3CCNCC3)s2)o1 + CC(C)NCC(C(=O)N1CCN(c2ncnc3c2C(C)CC3O)CC1)c1ccc(Cl)cc1"
test_value = 73.9


----------
- Tested on: MDA-MB-468 multi-cell spheroids, viability
- test.description: Anticancer human tumor MDA-MB-468 cell line growth inhibition [IpAb]; active = viability on the fitted dose curve at most 10% of control; inactive = the rest;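 also: spheroids exposed to agents for seven days; 100% = DMSO vehicle control viability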
- particulars: second compound 0.316 µM; first compound 0.0316 µM
Classes used: yes (active), no (inactive)

[[record]]
molecule = "COc1c(OCCCN2CCOCC2)ccc2c3n(c(=NC(=O)c4cnc(N)nc4)nc12)CCN3 + CC(C)NCC(C(=O)N1CCN(c2ncnc3c2C(C)CC3O)CC1)c1ccc(Cl)cc1"
cat = "no"

[[record]]
molecule = "CCCS(=O)(=O)Nc1ccc(F)c(C(=O)c2c[nH]c3ncc(-c4ccc(Cl)cc4)cc23)c1F + CCN1CCN(Cc2ccc(Nc3ncc(F)c(-c4cc(F)c5nc(C)n(C(C)C)c5c4)n3)nc2)CC1"
cat = "no"

[[record]]
molecule = "COc1c(OCCCN2CCOCC2)ccc2c3n(c(=NC(=O)c4cnc(N)nc4)nc12)CCN3 + CCN1CCN(Cc2ccc(Nc3ncc(F)c(-c4cc(F)c5nc(C)n(C(C)C)c5c4)n3)nc2)CC1"
cat = "no"

[[record]]
molecule = "CC(C)n1nc(-c2ccc3oc(N)nc3c2)c2c(N)ncnc21 + CC(C)NCC(C(=O)N1CCN(c2ncnc3c2C(C)CC3O)CC1)c1ccc(Cl)cc1"
cat = "yes"

[[record]]
molecule = "Cn1ncc(Cl)c1-c1cc(C(=O)NC(CN)Cc2cccc(F)c2)sc1Cl (stereo not given) + CC(C)NCC(C(=O)N1CCN(c2ncnc3c2C(C)CC3O)CC1)c1ccc(Cl)cc1"
cat = "no"

